Each entry below lists one item and its recorded inhibition at 10 µM value.
molecular target: KMO mouse enzyme (Mus musculus, UniProt Q91WN4); construct: KMO enzyme prepared at Evotec from mouse liver (4-6 weeks old) via mitochondria isolation; from tissue; host or cells: mouse liver (4-6 weeks old), mitochondria isolation, prepared at Evotec; assay: KMO mouse enzyme assay: L-Kynurenine hydroxylation to 3-Hydroxy-Kynurenine monitored by LC/MS (MRM); type: biochemical; details: compound at 10 μM; KMO enzyme from mouse liver mitochondria; read-out: INH.Mouse @ 10 μM
Sequence (Q91WN4 whole entry): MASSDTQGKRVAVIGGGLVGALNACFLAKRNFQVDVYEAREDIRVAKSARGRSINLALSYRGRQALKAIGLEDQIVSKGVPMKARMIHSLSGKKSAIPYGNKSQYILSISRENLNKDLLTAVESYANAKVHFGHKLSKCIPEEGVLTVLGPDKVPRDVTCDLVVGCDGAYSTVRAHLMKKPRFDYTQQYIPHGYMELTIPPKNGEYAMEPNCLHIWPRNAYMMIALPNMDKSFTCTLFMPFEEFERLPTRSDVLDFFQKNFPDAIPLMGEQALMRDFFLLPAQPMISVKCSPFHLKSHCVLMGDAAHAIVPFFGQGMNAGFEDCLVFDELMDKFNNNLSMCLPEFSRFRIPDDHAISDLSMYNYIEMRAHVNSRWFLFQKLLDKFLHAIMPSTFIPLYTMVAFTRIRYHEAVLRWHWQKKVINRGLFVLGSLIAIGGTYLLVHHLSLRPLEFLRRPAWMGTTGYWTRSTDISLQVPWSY
Counter-ions that a name gives are not always drawn.
Please state the figure in %; there is no need to write the unit.

# molecule, system_under_test, unit_name, inhibition at 10 µM
records = [
    ("O=C(Nc1cccnc1)c1cc(-c2ccc(F)c(F)c2)ncn1", "KMO mouse enzyme (Mus musculus, UniProt Q91WN4)", "%", 84.7),
]

Input: Assign inhibition at 10 µM to the following record: O=C(Nc1ccccc1)c1cc(-c2cc(Cl)cc(Cl)c2)ccn1
Output: 59.7

Input: Assign inhibition at 10 µM to the following record: Cc1ccc(NC(=O)c2cc(-c3ccc(Cl)c(Cl)c3)ncn2)c(C)n1
Output: 96.8

Input: Assign inhibition at 10 µM to the following record: O=C(O)c1ccnc(-c2cccc(Cl)c2)c1 [hydrochloride salt]
Output: 53.5

Input: Assign inhibition at 10 µM to the following record: O=C(c1cc(-c2cc(Cl)cc(Cl)c2)ccn1)N1CCc2ccccc21
Output: 54.5

Input: Assign inhibition at 10 µM to the following record: COc1cncc(NC(=O)c2cc(-c3cc(Cl)cc(Cl)c3)ncn2)c1
Output: 54.8

Input: Assign inhibition at 10 µM to the following record: CC1Cc2ccccc2N1C(=O)c1cc(-c2cccc(Cl)c2)ncn1 (centres unmarked)
Output: 76.9

Input: Assign inhibition at 10 µM to the following record: COc1ccc(NC(=O)c2cc(-c3cccc(Cl)c3)ncn2)cn1
Output: 93.4

Input: Assign inhibition at 10 µM to the following record: COC(=O)c1cc(-c2ccc(Cl)c(Cl)c2)ncn1
Output: 101
